// provenance: patent US8415351B2

- target under test: HCV polymerase 1B (Δ21 NS5B, BK) (Hepatitis C virus genotype 1b, UniProt P26663)
- Construct: 20 to 50 nM Δ21 NS5B
- Sequence (P26663 2420-2989, stated change not applied): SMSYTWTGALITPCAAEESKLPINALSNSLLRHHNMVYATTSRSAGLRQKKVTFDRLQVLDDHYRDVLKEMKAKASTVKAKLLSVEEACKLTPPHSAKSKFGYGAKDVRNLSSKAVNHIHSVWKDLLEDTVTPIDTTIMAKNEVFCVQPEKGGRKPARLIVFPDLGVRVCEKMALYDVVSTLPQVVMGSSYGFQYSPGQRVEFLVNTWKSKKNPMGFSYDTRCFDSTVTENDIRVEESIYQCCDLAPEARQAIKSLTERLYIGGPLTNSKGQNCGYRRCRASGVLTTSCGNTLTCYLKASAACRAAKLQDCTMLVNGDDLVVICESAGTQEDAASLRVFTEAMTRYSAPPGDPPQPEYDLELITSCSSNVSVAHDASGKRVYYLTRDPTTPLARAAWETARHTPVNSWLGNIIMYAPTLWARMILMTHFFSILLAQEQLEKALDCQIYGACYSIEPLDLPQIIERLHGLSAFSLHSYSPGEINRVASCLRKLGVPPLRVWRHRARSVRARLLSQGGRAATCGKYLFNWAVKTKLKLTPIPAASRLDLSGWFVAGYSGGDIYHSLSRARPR
- test protocol: biochemical
metric name: IC50

Enquiry: Consider the molecule CC(C)(C)c1cc(N2CCC(=O)NC2=O)cc(CN2CCC(NS(C)(=O)=O)C2)c1O (stereo not drawn) and give its measured IC50.
Return: > 1000 nM

Enquiry: Consider the molecule COc1c(-c2ccc3c(c2)CCC3NNS(C)(=O)=O)cc(-n2ccc(=O)[nH]c2=O)cc1C(C)(C)C (stereo not drawn) and give its measured IC50.
Return: 10 to 100 nM

Enquiry: Consider the molecule COc1c(CC(=O)c2ccc(NS(C)(=O)=O)cc2)cc(N2CCC(=O)NC2=O)cc1C(C)(C)C and give its measured IC50.
Return: 10 to 100 nM

Enquiry: Consider the molecule CC(C)(C)OC(=O)N1CCN(Cc2cc(N3CCC(=O)NC3=O)cc(C(C)(C)C)c2O)CC1 and give its measured IC50.
Return: > 1000 nM

Enquiry: Consider the molecule COc1c(C#Cc2ccc(NS(C)(=O)=O)cc2C(F)(F)F)cc(N2CCC(=O)NC2=O)cc1C(C)(C)C and give its measured IC50.
Return: < 10 nM

Enquiry: Consider the molecule CNS(=O)(=O)Cc1ccc(NC(=O)c2cc(N3CCC(=O)NC3=O)cc(C(C)(C)C)c2OC)cc1 and give its measured IC50.
Return: > 1000 nM

Enquiry: Consider the molecule COc1c(C(=O)Nc2ccc(OCC(N)=O)cc2)cc(N2CCC(=O)NC2=O)cc1C(C)(C)C and give its measured IC50.
Return: 100 to 1000 nM

Enquiry: Consider the molecule COc1c(C#Cc2ccc(NS(C)(=O)=O)nc2)cc(N2CCC(=O)NC2=O)cc1C(C)(C)C [IA-L2-1.26, 2,2,2-trifluoroacetate] and give its measured IC50.
Return: 10 to 100 nM

Enquiry: Consider the molecule CC(C)(C)c1cc(N2CCC(=O)NC2=O)cc(C(=O)Nc2cccc(CNS(C)(=O)=O)c2)c1O and give its measured IC50.
Return: 100 to 1000 nM

Enquiry: Consider the molecule CC(C)(C)c1cc(N2CCC(=O)NC2=O)cc(C(=O)Nc2ccc(NS(=O)(=O)c3ccccc3)cc2)c1O and give its measured IC50.
Return: 10 to 100 nM

Enquiry: Consider the molecule COC(=O)NN=C1CCc2cc(-c3cc(-n4ccc(=O)[nH]c4=O)cc(C(C)(C)C)c3OC)ccc21 and give its measured IC50.
Return: 10 to 100 nM

Enquiry: Consider the molecule COc1c(-c2ccc(/C=N/NS(C)(=O)=O)cc2)cc(-n2ccc(=O)[nH]c2=O)cc1C(C)(C)C and give its measured IC50.
Return: < 10 nM

Enquiry: Consider the molecule COc1c(C(=O)Nc2ccc(N)nc2)cc(N2CCC(=O)NC2=O)cc1C(C)(C)C and give its measured IC50.
Return: 100 to 1000 nM

Enquiry: Consider the molecule COc1c(C(=O)Nc2ccc(NS(=O)(=O)CCN(CCO)CCO)cc2)cc(N2CCC(=O)NC2=O)cc1C(C)(C)C and give its measured IC50.
Return: 100 to 1000 nM

Enquiry: Consider the molecule COc1cc(NS(C)(=O)=O)ccc1C(=O)Nc1cc(-n2ccc(=O)[nH]c2=O)cc(C(C)(C)C)c1OC and give its measured IC50.
Return: 10 to 100 nM
